Test system: BDF1 mice, s.c. Lewis lung carcinoma, T/C %
Test: NCI In Vivo Anticancer Drug Screen. Data for tumor model Lewis Lung Carcinoma (subcutaneous) in B6D2F1 (BDF1) mice
Conditions: endpoint: mean tumor weight; dose: 12.5 mg/kg/injection; schedule: Q01DX011 (ip); vehicle: saline; higher = larger tumour
Experimental: The antitumor activity of compounds was measured in mice bearing transplantable tumors. Survival or tumor size were measured and the results are expressed as the measurement made in the treated group (T) divided by the measurement made in the vehicle treated control group (C). The tumor model used in this assay is Lewis Lung Carcinoma (subcutaneous) in B6D2F1 (BDF1) mice
Inconclusive results are not listed.
Field: T/C. Provide a value for each of the compounds that follow.

Sample answers from the record:
item smiles | T/C
CC(/C=N/N=C(N)N)=N/N=C(N)N | 96 % of control
C1CCNCC1 | 87 % of control

Quick one: give me T/C for each item below, same order please.
1. O=c1c(O)c(-c2ccc(O)c(O)c2)oc2cc(O)ccc12
2. Nc1ncnc2nc[nH]c12
3. O=c1c(O)c(-c2ccccc2)oc2ccccc12
4. CC(=O)Nc1ccc2nc3ccc(NC(C)=O)cc3[n+](-c3ccccc3)c2c1
5. CC(C)=CCC/C(C)=C\CC/C(C)=C/CO

## Result
["99 % of control", "101 % of control", "103 % of control", "61 % of control", "50 % of control"]

## Task Sample O=C(O)CC(O)(CC(=O)O)C(=O)O.[Ga] — what was its T/C?
## Result 57 % of control

====

Hi there, I'd appreciate the recorded T/C for every entry that follows.
Test system: BDF1 mice, s.c. Lewis lung carcinoma, T/C %
Experiment: NCI In Vivo Anticancer Drug Screen. Data for tumor model Lewis Lung Carcinoma (subcutaneous) in B6D2F1 (BDF1) mice
Details: endpoint: mean tumor weight; dose: 25.0 mg/kg/injection; schedule: Q01DX011 (ip); vehicle: carboxymethylcellulose (CMC); higher = larger tumour
Inconclusive results are not listed.

Your task in this section: give T/C for each listed record.
1. CCOc1ccc2nc(S(N)(=O)=O)sc2c1
2. NC(=S)N/N=C/c1nccc2ccccc12

## Result
1: 79 % of control; 2: 48 % of control

Give T/C for all molecules that follow.
1. O=C1c2c(Cl)c(Cl)c(Cl)c(Cl)c2C(=O)N1c1nccs1
2. CC(NC(=O)C1(N)CCCC1)C(=O)O (configuration not stated)
3. COC(=O)c1ccccc1NC(c1ccccn1)c1ccc2cccnc2c1O (configuration not stated)
4. Oc1ccc2ccccc2c1N=Nc1ccccc1
5. OCC1=CCN2CC[C@@H](O)[C@@H]12

## Result
["62 % of control", "60 % of control", "111 % of control", "78 % of control", "122 % of control"]

====

System: BDF1 mice, s.c. Lewis lung carcinoma, T/C %
Assay: NCI In Vivo Anticancer Drug Screen. Data for tumor model Lewis Lung Carcinoma (subcutaneous) in B6D2F1 (BDF1) mice
Settings: endpoint: mean tumor weight; dose: 12.5 mg/kg/injection; schedule: Q01DX011 (ip); vehicle: saline; higher = larger tumour
Inconclusive results are not listed.
Field: T/C. Provide a value for each of the compounds that follow.

compound | T/C
CN1C2CCC1CC(OC(=O)C(CO)c1ccccc1)C2 (centres undefined) | 92 % of control
O=NN(CCCl)C(=O)NCCCl | 3 % of control
CCc1c(CC(=O)O)c2cc(C)ccc2n1Cc1ccc(Cl)cc1 | 72 % of control
CC1CCCCN1 (centres undefined) | 95 % of control
O=c1[nH]c(=O)c2[nH]cnc2[nH]1 | 97 % of control
O=P1(N(CCCl)CCCl)NCCCO1 (centres undefined) | 74 % of control
CS(=O)(=O)OCCC(=O)N1CCN(C(=O)CCOS(C)(=O)=O)CC1 | 85 % of control
O=c1c(O)c(-c2ccc(O)c(O)c2)oc2cc(O)cc(O)c12 | 86 % of control

Query compound follows.
## Task Value lookup for T/C; key = NC(=S)N/N=C/c1ncccc1O
## Result 86 % of control
